Species: Canis familiaris
procedureDetails: Vasodilatory activity (at 10 nmol) relative to nifedipine (at 1 nmol) by femoral artery blood flow (FBF) in autoperfused canine femoral artery preparations.
Format: functional, Canis lupus familiaris
experimentalReadout: FBF Ratio
Answer as a number with no unit attached.

>>> print(df.to_string())
                                 smilestext  experimentalreadout  testvalue
0  CN(CCc1ccccc1)C1CCN(C(=O)c2cccc3nc(O)ccc23)CC1.Cl            FBF Ratio       0.32

FBF Ratio in this record for CN(CCc1ccccc1)C1CCN(C(=O)c2ccc3c(c2)NC(=O)CC3)CC1 : 0.19

FBF Ratio in this record for CCC(=O)Nc1c(C)cc(C(=O)N2CCC(N(C)CCc3ccccc3)CC2)cc1OC.Cl : 0.7

FBF Ratio in this record for CCCc1cc(C(=O)N2CCC(N(C)CCc3ccccc3)CC2)cc2ccc(O)nc12.Cl : 1.61

FBF Ratio in this record for CN(CCc1ccccc1)C1CCN(C(=O)c2cc([N+](=O)[O-])c3nc(O)ccc3c2)CC1.Cl : 1.6

FBF Ratio in this record for Cc1cc(C(=O)N2CCC(N(C)CCc3ccccc3)CC2)cc2c1NC(=O)CC2.Cl : 0.67

====

Reported FBF Ratio values follow for various compounds
Species on record: Canis familiaris
procedureDetails: Vasodilatory activity (at 10 nmol) relative to nifedipine (at 1 nmol) by femoral artery blood flow (FBF) in autoperfused canine femoral artery preparations.
Format: functional, Canis lupus familiaris
Answer as a number with no unit attached.

>>> print(df.to_string())
                                   compound  experimentalreadout  testvalue
0  CCC(=O)Nc1ccc(C(=O)N2CCC(N(C)CCc3ccccc3)CC2)cc1Cl.Cl            FBF Ratio       1.71

FBF Ratio in this record for CN(CCc1ccccc1)C1CCN(C(=O)C2CC(=O)Nc3ccccc32)CC1.Cl (centres undefined) : 0.85

FBF Ratio in this record for CN(CCc1ccccc1)C1CCN(C(=O)c2cc3c(c([N+](=O)[O-])c2)NC(=O)CC3)CC1 : 0.68

FBF Ratio in this record for Cc1cc2c(cc1C(=O)N1CCC(N(C)CCc3ccccc3)CC1)CCC(=O)N2.O=C(O)C(=O)O : 3.01

====

Species: Canis familiaris
procedureDetails: Vasodilatory activity (at 10 nmol) relative to nifedipine (at 1 nmol) by femoral artery blood flow (FBF) in autoperfused canine femoral artery preparations.
Type: functional, Canis lupus familiaris
Classification field: enter satisfied for FBF Ratio values not below 1, not satisfied for values below it.

Here are 5 molecules together with their reported answers.
>>> df
                                 smilestext  classassignment
0  CCc1cc(C(=O)N2CCC(N(C)CCc3ccccc3)CC2)cc2ccc(O)nc12.O=C(O)C(=O)O    not satisfied
1  CCC(=O)Nc1ccc(C(=O)N2CCC(N(C)CCc3ccccc3)CC2)cc1        satisfied
2  CCC(=O)Nc1cc(C)c(C(=O)N2CCC(N(C)CCc3ccccc3)CC2)cc1C.Cl    not satisfied
3  COc1cc2nc(O)ccc2cc1C(=O)N1CCC(N(C)CCc2ccccc2)CC1        satisfied
4  CCC(=O)Nc1c(C)cc(C(=O)N2CCC(N(C)CCc3ccccc3)CC2)cc1Cl.Cl    not satisfied

Moving on to another molecule below.
Enquiry: Can CCC(=O)Nc1ccc(C(=O)N2CCC(N(C)CCc3ccccc3)CC2)cc1[N+](=O)[O-].Cl be said to have FBF Ratio at or above 1?
Return: not satisfied
